target-or-system: T1, factor VIIIa A1/A3C1C2 dimer, wild type (human, UniProt P00451 20-391; P00451 1709-2351)
T1 sequence 1: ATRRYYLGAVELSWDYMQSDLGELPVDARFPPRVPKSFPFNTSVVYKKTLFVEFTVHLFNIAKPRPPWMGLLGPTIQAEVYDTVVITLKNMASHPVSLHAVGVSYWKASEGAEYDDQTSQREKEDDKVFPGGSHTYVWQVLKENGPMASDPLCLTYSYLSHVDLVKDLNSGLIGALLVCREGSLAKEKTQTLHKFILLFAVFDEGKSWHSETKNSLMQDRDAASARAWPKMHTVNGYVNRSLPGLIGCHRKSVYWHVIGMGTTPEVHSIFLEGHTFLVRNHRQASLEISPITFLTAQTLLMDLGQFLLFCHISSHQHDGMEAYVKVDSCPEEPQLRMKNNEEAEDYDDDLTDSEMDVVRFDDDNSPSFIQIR
T1 sequence 2: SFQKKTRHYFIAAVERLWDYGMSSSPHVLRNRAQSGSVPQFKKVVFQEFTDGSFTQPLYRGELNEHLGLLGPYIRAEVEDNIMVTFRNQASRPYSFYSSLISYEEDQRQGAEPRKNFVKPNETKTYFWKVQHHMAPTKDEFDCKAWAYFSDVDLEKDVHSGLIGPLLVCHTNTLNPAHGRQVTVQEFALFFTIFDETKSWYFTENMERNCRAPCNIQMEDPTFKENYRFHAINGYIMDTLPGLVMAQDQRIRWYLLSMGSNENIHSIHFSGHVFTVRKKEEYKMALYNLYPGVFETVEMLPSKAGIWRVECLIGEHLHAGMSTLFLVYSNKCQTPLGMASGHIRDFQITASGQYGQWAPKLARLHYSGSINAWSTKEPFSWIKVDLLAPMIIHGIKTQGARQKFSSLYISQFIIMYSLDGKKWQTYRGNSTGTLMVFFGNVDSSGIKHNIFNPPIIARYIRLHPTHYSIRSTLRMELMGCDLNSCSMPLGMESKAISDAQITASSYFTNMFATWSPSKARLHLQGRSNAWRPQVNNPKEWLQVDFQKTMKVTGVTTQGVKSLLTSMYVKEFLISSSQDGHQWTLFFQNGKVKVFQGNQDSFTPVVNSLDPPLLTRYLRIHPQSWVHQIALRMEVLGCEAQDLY
method-summary: cell-based or functional assay
measure: Factor VIIIa decay rate, FIXa (+) (min⁻¹)
Give the number; min⁻¹ is assumed, so skip it.

# binder factor VIIIa A2 subunit, Y476F (other) SVAKKHPKTWVHYIAAEEEDWDYAPLVLAPDDRSYKSQYLNNGPQRIGRKYKKVRFMAYTDETFKTREAIQHESGILGPLLYGEVGDTLLIIFKNQASRPYNIFPHGITDVRPLYSRRLPKGVKHLKDFPILPGEIFKYKWTVTVEDGPTKSDPRCLTRYYSSFVNMERDLASGLIGPLLICYKESVDQRGNQIMSDKRNVILFSVFDENRSWYLTENIQRFLPNPAGVQLEDPEFQASNIMHSINGYVFDSLQLSVCLHEVAYWYILSIGAQTDFLSVFFSGYTFKHKMVYEDTLTLFPFSGETVFMSMENPGLWILGCHNSDFRNRGMTALLKVSSCDKNTGDYYEDSYEDISAYLLSKNNAIEPR ; its Factor VIIIa decay rate, FIXa (+) = 0.0139
